Entry source: PubChem BioAssay AID2060888

- System: 695427-040-R-J1-PDC complex spheroid viability;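 note: viability read after seven days of drug exposure; 100% = DMSO vehicle control viability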
- test_protocol: Anticancer human tumor 695427-040-R-J1-PDC patient-derived colon adenocarcinoma cell line growth inhibition [RAS]
- experimental_parameters: second compound 0.00949 µM; first compound 0.0316 µM; hits give low values
- From the text: RAS pathway inhibitors in Combinations in Complex Spheroids A high-throughput screen of multi-cell type tumor spheroids was designed to identify active combinations of RAS pathway inhibitors and targeted small molecules. Complex spheroids include a stromal component modeled by human endothelial cells (HUVEC) and fibroblasts modeled by human mesenchymal stem cells (MSCs). […] Compounds. […] If the clinical Cmax for an agent had not been determined, the highest concentration tested was 10 microM. […]
readout_type: viability, T/C

Worked cases, answers included:
# compound, readout_type, observed_result
measured = [
    ("C=CC(=O)N1CCN(c2nc(OCC3CCCN3C)nc3c(F)c(-c4nc(N)cc(C)c4C(F)(F)F)c(Cl)cc23)C(C)C1 (stereo not drawn) + CCn1c(-c2cc(N3CCN(C)CC3)cnc2C(C)OC)c2c3cc(ccc31)-c1csc(n1)CC(NC(=O)C1CC1C)C(=O)N1CCCC(N1)C(=O)OCC(C)(C)C2", "viability, T/C", "81.2%"),
    ("CC(=O)OC12COC1CC(O)C1(C)C(=O)C(O)C3=C(C)C(OC(=O)C(O)C(NC(=O)OC(C)(C)C)c4ccccc4)CC(O)(C(OC(=O)c4ccccc4)C21)C3(C)C (stereo not drawn) + CCn1c(-c2cc(N3CCN(C)CC3)cnc2C(C)OC)c2c3cc(ccc31)-c1csc(n1)CC(NC(=O)C1CC1C)C(=O)N1CCCC(N1)C(=O)OCC(C)(C)C2", "viability, T/C", "75.3%"),
    ("CC(Nc1ccc2c(c1)OCCn1cc(N3C(=O)OCC3C(F)F)nc1-2)C(N)=O (stereo not drawn) + CCn1c(-c2cc(N3CCN(C)CC3)cnc2C(C)OC)c2c3cc(ccc31)-c1csc(n1)CC(NC(=O)C1CC1C)C(=O)N1CCCC(N1)C(=O)OCC(C)(C)C2", "viability, T/C", "86.2%"),
    ("O=C(c1ccc(F)c(F)c1Nc1ccc(I)cc1F)N1CC(O)([C@@H]2CCCCN2)C1 + CCn1c(-c2cc(N3CCN(C)CC3)cnc2C(C)OC)c2c3cc(ccc31)-c1csc(n1)CC(NC(=O)C1CC1C)C(=O)N1CCCC(N1)C(=O)OCC(C)(C)C2", "viability, T/C", "45.9%"),
    ("CC(Nc1ccc2c(c1)OCCn1cc(N3C(=O)OCC3C(F)F)nc1-2)C(N)=O (stereo not drawn) + CCn1c(-c2cccnc2C(C)OC)c2c3cc(ccc31)N1CCOC(CC(NC(=O)C(C(C)C)N(C)C(=O)C3(F)CCN(C(=O)C#CC(C)(C)N(C)C)CC3)C(=O)N3CCCC(N3)C(=O)OCC(C)(C)C2)C1", "viability, T/C", "103%"),
    ("CC1(O)CCCC1n1c(=O)c(C(F)F)cc2cnc(NC3CCN(S(C)(=O)=O)CC3)nc21 (stereo not drawn) + CCn1c(-c2cccnc2C(C)OC)c2c3cc(ccc31)N1CCOC(CC(NC(=O)C(C(C)C)N(C)C(=O)C3(F)CCN(C(=O)C#CC(C)(C)N(C)C)CC3)C(=O)N3CCCC(N3)C(=O)OCC(C)(C)C2)C1", "viability, T/C", "108%"),
    ("C[C@@H](NC(=O)c1ncnc(N)c1Cl)c1ncc(C(=O)Nc2cc(C(F)(F)F)c(Cl)cn2)s1 + CCn1c(-c2cccnc2C(C)OC)c2c3cc(ccc31)N1CCOC(CC(NC(=O)C(C(C)C)N(C)C(=O)C3(F)CCN(C(=O)C#CC(C)(C)N(C)C)CC3)C(=O)N3CCCC(N3)C(=O)OCC(C)(C)C2)C1", "viability, T/C", "96.3%"),
]

# next compound below
// query Record request: viability, T/C value, item NC1c2ccccc2OC12CCN(c1cnc3c(N4CCCc5ncccc54)n[nH]c3n1)CC2 (stereo not drawn) + CCn1c(-c2cc(N3CCN(C)CC3)cnc2C(C)OC)c2c3cc(ccc31)-c1csc(n1)CC(NC(=O)C1CC1C)C(=O)N1CCCC(N1)C(=O)OCC(C)(C)C2
// result 62.2%
